Where these numbers come from: PubChem BioAssay AID1259407

tested on: CCRIS mutagenicity, Ames/micronucleus/aberration tests; experiment: CCRIS mutagenicity studies; conditions: Test System: AMES SALMONELLA TYPHIMURIUM; Strain/Indicator: TA104; Metabolic Activation: RAT, LIVER, S-9, AROCLOR 1254
The source made the active and inactive calls. How the calls were made is not given here.
Please reply with one of these outcomes: active, inactive

Please review the following examples before continuing.
# molecule, target_system, class_name
records = [
    ("O=[N+]([O-])c1cc2c3c(c1)CCc1c4c(cc(c1-3)CC2)CCCC4", "CCRIS mutagenicity, Ames/micronucleus/aberration tests", "active"),
    ("O=C(O)COc1cc(Cl)c(Cl)cc1Cl", "CCRIS mutagenicity, Ames/micronucleus/aberration tests", "inactive"),
]

Look up the recorded call for "O=[N+]([O-])c1ccc2c(ccc3cc4c(ccc5ccccc54)cc32)c1" in this test. active

Thanks! And CC(C)(Oc1ccc(C2CC2(Cl)Cl)cc1)C(=O)O (centres undefined) ? inactive
